Ref: patent US10787430B2

# Lookup of reported IC50 keyed by entry
test.target: CYP2C8 (Homo sapiens)
Construct: from tissue; host or cells: human liver microsomes
Sequence (P10632 whole entry): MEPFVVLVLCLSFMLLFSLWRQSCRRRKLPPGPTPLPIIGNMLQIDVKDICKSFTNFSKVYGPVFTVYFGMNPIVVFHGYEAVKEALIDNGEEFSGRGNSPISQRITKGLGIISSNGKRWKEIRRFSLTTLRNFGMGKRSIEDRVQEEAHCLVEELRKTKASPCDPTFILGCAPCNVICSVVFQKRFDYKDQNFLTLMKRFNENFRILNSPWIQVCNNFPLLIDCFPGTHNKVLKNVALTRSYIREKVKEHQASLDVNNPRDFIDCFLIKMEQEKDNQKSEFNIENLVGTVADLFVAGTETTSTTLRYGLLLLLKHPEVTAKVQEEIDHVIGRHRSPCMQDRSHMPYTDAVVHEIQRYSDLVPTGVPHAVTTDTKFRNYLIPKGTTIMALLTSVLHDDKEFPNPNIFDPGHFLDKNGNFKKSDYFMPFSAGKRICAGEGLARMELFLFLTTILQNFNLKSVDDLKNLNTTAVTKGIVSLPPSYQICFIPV
assay.method.text: CYP inhibition evaluation in human liver microsomes
Type: in vitro ADME

| molecule | test.target | value.unit | qualifying.sign | IC50 |
| --- | --- | --- | --- | --- |
| CC(C)n1nccc1-c1ncccc1COc1cccc(O)c1C=O [GBT440, reference compound] | CYP2C8 (Homo sapiens) | µM | = | 12.4 |
| [2H]C([2H])(Oc1cc(F)cc(O)c1C=O)c1cccnc1-c1ccnn1C(C)C [Example 27b] | CYP2C8 (Homo sapiens) | µM | = | 3.7 |
| [2H]C([2H])(Oc1cccc(O)c1C=O)c1cccnc1-n1ccnc1C(C)C [Example 29e] | CYP2C8 (Homo sapiens) | µM | > | 50 |
